Test system: LNCaP
assay_text: Cytotoxicity against human LNcaP cells after 48 hrs by SRB assay
Assay type: functional
GI50 under 1000 nM gets MET, anything at or over 1000 nM gets NOT MET.

| smiles_code | class_label |
| --- | --- |
| C/C=C1\NC(=O)[C@H](Cc2ccccc2)NC(=O)[C@@H](C(C)C)NC(=O)[C@@H]([C@H](C)CC)NC(=O)[C@H](NC(=O)[C@H](NC(=O)[C@H](CCCN)NC(=O)[C@H]2CCCN2C(=O)[C@H](NC(=O)[C@@H](NC(=O)[C@H](CCC(=O)O)NC(=O)[C@H](NC(=O)CCCC(C)C)C(C)C)C(C)C)C(C)C)[C@H](C)CC)[C@H](C)OC(=O)[C@H](C(C)C)NC1=O | NOT MET |
| C/C=C1\NC(=O)[C@H](Cc2ccccc2)NC(=O)[C@@H](C(C)C)NC(=O)[C@@H]([C@H](C)CC)NC(=O)[C@H](NC(=O)[C@H](NC(=O)[C@H](CCCN)NC(=O)[C@H]2CCCN2C(=O)[C@H](NC(=O)[C@@H](NC(=O)[C@@H](NC(=O)[C@H](NC(=O)CC[C@@H](C)CC)C(C)C)[C@@H](C)OC(=O)C(F)(F)F)C(C)C)C(C)C)[C@H](C)CC)[C@H](C)OC(=O)[C@H](C(C)C)NC1=O | MET |
| C/C=C1\NC(=O)[C@H](Cc2ccccc2)NC(=O)[C@@H](C(C)C)NC(=O)[C@@H]([C@H](C)CC)NC(=O)[C@H](NC(=O)[C@H](NC(=O)[C@H](CCCN)NC(=O)[C@H]2CCCN2C(=O)[C@H](NC(=O)[C@@H](NC(=O)[C@@H](NC(=O)[C@H](NC(=O)CCCC(C)C)C(C)C)[C@@H](C)O)C(C)C)C(C)C)[C@H](C)CC)COC(=O)[C@H](C(C)C)NC1=O | NOT MET |
| C/C=C1\NC(=O)[C@H](Cc2ccc(F)cc2)NC(=O)[C@@H](C(C)C)NC(=O)[C@@H]([C@H](C)CC)NC(=O)[C@H](NC(=O)[C@H](NC(=O)[C@H](CCCN)NC(=O)[C@H]2CCCN2C(=O)[C@H](NC(=O)[C@@H](NC(=O)[C@@H](NC(=O)[C@H](NC(=O)CC[C@@H](C)CC)C(C)C)[C@@H](C)O)C(C)C)C(C)C)[C@H](C)CC)[C@H](C)OC(=O)[C@H](C(C)C)NC1=O | MET |
| C/C=C1\NC(=O)[C@H](Cc2ccccc2)NC(=O)[C@@H](C(C)C)NC(=O)[C@@H]([C@H](C)CC)NC(=O)[C@H](NC(=O)[C@H](NC(=O)[C@H](CCCN)NC(=O)[C@H]2CCCN2C(=O)[C@H](NC(=O)[C@@H](NC(=O)[C@@H](NC(=O)[C@H](NC(=O)CC[C@@H](C)[C@H]2CC[C@H]3[C@@H]4CC[C@@H]5C[C@H](OC(=O)C(F)(F)F)CC[C@]5(C)[C@H]4CC[C@]23C)C(C)C)[C@@H](C)O)C(C)C)C(C)C)[C@H](C)CC)[C@H](C)OC(=O)[C@H](C(C)C)NC1=O | MET |
